METHOD NOTES: Liver microsome stability assay
Type: in vitro ADME
CONDITION LABEL: rat liver microsomes, 10 μM, LC/MS
Please mark Condition met if the recorded RLM 3 h % Stability is equal to or greater than 50%, and Condition not met if it falls below.

> print(dat)
                                   compound          group
1  C=CCc1cc(F)cc(/C=N/NC(=O)CN2CCN(Cc3ccccc3)CC2)c1O [Compound 28]  Condition met

**Query** Check if RLM 3 h % Stability >= 50% (inclusive). Item: CCCc1cc(F)cc(/C=N/NC(=O)CN2CCN(Cc3ccc(C(F)(F)F)cc3)CC2)c1O [Compound 44]
**Result** Condition not met

**Query** Try this compound too: CCCc1cc(F)cc(/C=N/NC(=O)CN2CCN(Cc3ccc(S(N)(=O)=O)cc3)CC2)c1O [Compound 38]
**Result** Condition met

**Query** Try this compound too: C=CCc1cc(F)cc(/C=N/NC(=O)CN2CCN(Cc3ccc(F)cc3)CC2)c1O [Compound 33]
**Result** Condition met

These data points were gathered from patent US9249116B2.
